B1: CPEB3 Ribozyme (parent)
chain: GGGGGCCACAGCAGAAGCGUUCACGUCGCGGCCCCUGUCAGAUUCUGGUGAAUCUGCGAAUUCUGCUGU

- Variants of: B1
- METHOD_DESCRIPTION: self-cleavage, relative activity (ratio to wild type); higher = more cleavage; co-transcriptional
self-cleavage by entry:

>  <SEQ_STRING>
GGGGGCCACAGCAGAAGCUUUCACGUCGCGGCCCCUGUCAGAUUCUGGUGAAUCUGCGAAUUCUGUUGU [G19U C66U]

>  <self-cleavage>
0.382

$$$$
>  <SEQ_STRING>
AGGGGCCACAGUAGAAGCGUUCACGUCGCGGCCCCUGUCAGAUUCUGGUGAAUCUGCGAAUUCUGCUGU [G1A C12U]

>  <self-cleavage>
0.0887

$$$$
>  <SEQ_STRING>
GGGGGCCACAGCAGAAGGGUUCACGUCGCGGCCCCUGUCAGAUUCUGGUGACUCUGCGAAUUCUGCUGU [C18G A52C]

>  <self-cleavage>
0.181

$$$$
>  <SEQ_STRING>
GGGGGGCACAGCAGAAGCGUUCACGUCGCUGCCCCUGUCAGAUUCUGGUGAAUCUGCGAAUUCUGCUGU [C6G G30U]

>  <self-cleavage>
0.045

$$$$
>  <SEQ_STRING>
GGGGGGCACAGGAGAAGCGUUCACGUCGCGGCCCCUGUCAGAUUCUGGUGAAUCUGCGAAUUCUGCUGU [C6G C12G]

>  <self-cleavage>
0.253

$$$$
>  <SEQ_STRING>
GGGGGCCACAGCAGAAGCGUUCACGUCGCGGCCCCUGUCAGAUUCUGGUGAAACUGAGAAUUCUGCUGU [U53A C57A]

>  <self-cleavage>
0.402

$$$$
>  <SEQ_STRING>
GGGGGCCAGAGCAGAAGCUUUCACGUCGCGGCCCCUGUCAGAUUCUGGUGAAUCUGCGAAUUCUGCUGU [C9G G19U]

>  <self-cleavage>
0.643

$$$$
>  <SEQ_STRING>
GGGGGCCACAGCAGAAGCGUUCACGUCGCGGCCCCUGUCAGAUUCUGUUGAAUCUGCGAAGUCUGCUGU [G48U U61G]

>  <self-cleavage>
0.958

$$$$
>  <SEQ_STRING>
GGGGGCCACCGCAGAAGCUUUCACGUCGCGGCCCCUGUCAGAUUCUGGUGAAUCUGCGAAUUCUGCUGU [A10C G19U]

>  <self-cleavage>
0.446

$$$$
>  <SEQ_STRING>
GGGGGCCACAGCAGAAGCGUUCACGUCGCGUCCCCUGUCAGAUUCUGGUGAAUCUGCGACUUCUGCUGU [G31U A60C]

>  <self-cleavage>
0.291

$$$$
>  <SEQ_STRING>
CGGGGCCACAGCAGAAGCGUUCACGUCACGGCCCCUGUCAGAUUCUGGUGAAUCUGCGAAUUCUGCUGU [G1C G28A]

>  <self-cleavage>
0.102

$$$$
>  <SEQ_STRING>
GGGGGCCACAGCAGAAGCGUUCACGUCGCGGCCCCUGUCAGAUUCUGGUGAAACCGCGAAUUCUGCUGU [U53A U55C]

>  <self-cleavage>
0.43

$$$$
>  <SEQ_STRING>
GGGGGCCACAGCAGAAGCGUUCACGCCGCGGCCCCGGUCAGAUUCUGGUGAAUCUGCGAAUUCUGCUGU [U26C U36G]

>  <self-cleavage>
0.123

$$$$
>  <SEQ_STRING>
GGGGGCCACAGCAGAAGCGUUCACGUCGCGGCCCCUGUCAGAUUCUGGUGAAUCUGCGAAUUCUGACGU [C66A U67C]

>  <self-cleavage>
0.925

$$$$
>  <SEQ_STRING>
GGGGGCCACAGCAGAAGCGUUCACGUCGCGGCCCCUGUCAGACUCUGGUGAAUCUGCGAAUUCUGCUGG [U43C U69G]

>  <self-cleavage>
1.03

$$$$
>  <SEQ_STRING>
GGGGGCCACAGCAGAAGUGUUCACGUCGCGGCCCCUUUCAGAUUCUGGUGAAUCUGCGAAUUCUGCUGU [C18U G37U]

>  <self-cleavage>
0.198

$$$$
>  <SEQ_STRING>
GGGGGCCACAGCAGAAGCGUUCACGUCGCGGCCGCUGUCAGAUUCUGGUGAAUCUGCGAAUUCUGCUGG [C34G U69G]

>  <self-cleavage>
0.926

$$$$
>  <SEQ_STRING>
GGGGGCCACAGCAGAAGCGCUCACGUCGCGGCCCCUGUCAGUUUCUGGUGAAUCUGCGAAUUCUGCUGU [U20C A42U]

>  <self-cleavage>
0.271

$$$$
>  <SEQ_STRING>
GGGAGCCACAGCAGAAGCGUUCACGUCGCGGCCCCUGUCAGAUUCUGGUGAAUAUGCGAAUUCUGCUGU [G4A C54A]

>  <self-cleavage>
0.457

$$$$
>  <SEQ_STRING>
GGGGGCCACAGCAGAAGCAUUCACGUCGCGGCCCCUGUCAGAAUCUGGUGAAUCUGCGAAUUCUGCUGU [G19A U43A]

>  <self-cleavage>
0.108

$$$$
>  <SEQ_STRING>
GGGGGCCACAGCAGAAGCGUUCACGUCGCGUCCCCUGUCAGAUUCUGGUGAAUCUGCGAAUUCUGCCGU [G31U U67C]

>  <self-cleavage>
0.939

$$$$
>  <SEQ_STRING>
GGGGGCCACAGCACAAGCGUUCACGUCGCGGCCCCUGUCAGAUUCUGGUGAAUCUGCGAAUUCUUCUGU [G14C G65U]

>  <self-cleavage>
0.242

$$$$
